- SYSTEM TESTED: Mitogen-activated protein kinase 8 (Homo sapiens, UniProt P45983)
- Sequence (P45983 whole entry): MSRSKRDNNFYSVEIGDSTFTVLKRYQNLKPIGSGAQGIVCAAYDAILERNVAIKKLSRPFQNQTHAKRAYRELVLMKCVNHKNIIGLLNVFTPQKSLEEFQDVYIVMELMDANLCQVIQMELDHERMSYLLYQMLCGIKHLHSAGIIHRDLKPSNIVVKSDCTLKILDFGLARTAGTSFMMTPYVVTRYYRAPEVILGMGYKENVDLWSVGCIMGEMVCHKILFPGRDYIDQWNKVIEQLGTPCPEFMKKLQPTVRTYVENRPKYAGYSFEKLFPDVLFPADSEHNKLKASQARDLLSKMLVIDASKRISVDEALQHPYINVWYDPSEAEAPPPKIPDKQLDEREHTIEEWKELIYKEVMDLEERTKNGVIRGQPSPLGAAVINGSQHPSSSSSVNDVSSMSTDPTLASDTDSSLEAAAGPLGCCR
- METHOD: Inhibition of JNK1
ASSAY READOUT: log10 of IC50 (log10 of the value in nM)
// stored as log10 of IC50 expressed in nM

COMPOUND: COc1cc[nH]c1/C=C1\C(=O)Nc2cccc(C#CC(O)c3ccc(OCCCN(C)C)cc3)c21 (configuration not stated)
log10 of IC50: 1.53

COMPOUND: CCOc1nc(C(=O)NCCNc2ccc([N+](=O)[O-])cn2)cc(N)c1C#N
log10 of IC50: 1.79

COMPOUND: CCOc1nc(C(=O)NCc2ccc([S+]([O-])c3ccccc3)cc2)cc(N)c1C#N (configuration not stated)
log10 of IC50: 1.70

COMPOUND: CC(C)Oc1nc(C(=O)N(C)Cc2ccc(S(C)(=O)=O)cc2)cc(N)c1C#N
log10 of IC50: 3.81

COMPOUND: CCOc1nc(C(=O)NCc2cnccc2Cl)cc(N)c1C#N
log10 of IC50: 1.48

Quickly give me recorded log10 of IC50 for `CCOc1nc(C(=O)NCc2ccc(S(=O)(=O)c3ccccc3)cc2)cc(N)c1C#N`
2.11

Where do these numbers come from? They come from ChEMBL document CHEMBL1138387.
